Cited source for all entries: the MegaScale stability set (Tsuboyama et al. 2023)

B1: 6NMW (parent)
chain: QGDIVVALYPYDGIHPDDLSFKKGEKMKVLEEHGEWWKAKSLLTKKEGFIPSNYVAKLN

variants of: B1; test: folding stability dG (cDNA display proteolysis); higher = more stable; conditions: PBS, room temperature
QUANTITY MEASURED: folding stability dG (kcal/mol)
Quick note: give the figure in kcal/mol, leave out the unit.

Worked set:
| MUTATION SPEC | folding stability dG, kcal/mol |
| --- | --- |
| L58Y | 3.52 |
| K23V | 3.39 |
| D18A | 3.61 |
| Y54H | 2.9 |
| K23R | 3.33 |
| Y9I | 2.72 |

(Q) Query (variant): N59H ; field requested: folding stability dG
(A) 3.98
